Each record here notes measured pIC50.
- target-or-system: adenosine A2A receptor (Homo sapiens (Human), UniProt P29274)
- Sequence (P29274 whole entry): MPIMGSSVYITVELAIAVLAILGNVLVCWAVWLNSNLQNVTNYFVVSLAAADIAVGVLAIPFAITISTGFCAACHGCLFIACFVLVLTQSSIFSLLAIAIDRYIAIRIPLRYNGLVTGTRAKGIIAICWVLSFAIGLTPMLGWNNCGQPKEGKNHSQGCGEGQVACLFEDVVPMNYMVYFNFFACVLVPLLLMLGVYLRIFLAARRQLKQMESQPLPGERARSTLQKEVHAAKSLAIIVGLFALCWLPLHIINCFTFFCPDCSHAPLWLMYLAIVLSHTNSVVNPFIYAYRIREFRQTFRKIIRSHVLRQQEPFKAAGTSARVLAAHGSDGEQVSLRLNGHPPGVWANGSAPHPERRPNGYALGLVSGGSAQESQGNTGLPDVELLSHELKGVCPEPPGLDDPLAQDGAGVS
- assay-text: Adenosine receptor activity assay (Table 1), A2A activity
- Type: biochemical
- conditions: read-out: Ave A2A cAMP IC50
pIC50: −log10 of the molar value.

Please give the measured pIC50 for this compound: "Cc1cc2nc(N[C@@H](C)c3cncc(F)c3)nc(C(=O)N3CC[C@H]3C)c2s1"
7.30 to 8.00

New cases:
Please give the measured pIC50 for this compound: "COc1ccc(CNC(=O)c2nc(N[C@@H](C)c3ccccn3)nc3ccsc23)cc1"
7.00 to 7.30

Please give the measured pIC50 for this compound: "CO[C@@H]1CCN(C(=O)c2nc(N[C@@H](C)c3cncc(Cl)c3)nc3ccsc23)C1"
6.30 to 7.00

Please give the measured pIC50 for this compound: "O=C(c1nc(NCc2ccccc2)nc2ccsc12)N1CCCC1"
6.30 to 7.00

Please give the measured pIC50 for this compound: "CC(=O)N[C@@H]1CCN(C(=O)c2nc(N[C@@H](C)c3cncc(F)c3)nc3ccsc23)C1"
< 6.30

Please give the measured pIC50 for this compound: "C[C@H](O)CNC(=O)c1nc(N[C@@H](C)c2cncc(F)c2)nc2cc(C(F)(F)F)sc12"
< 6.30

Please give the measured pIC50 for this compound: "CNc1cc2nc(N[C@@H](C)c3ccccn3)nc(C(=O)N3CCC3)c2s1"
6.30 to 7.00

Please give the measured pIC50 for this compound: "O=C(c1nc(NCc2cccc(Cl)c2)nc2ccsc12)N1CCCC1"
6.30 to 7.00

###

- target-or-system: adenosine A2B receptor (Homo sapiens (Human), UniProt P29275)
- Sequence (P29275 whole entry): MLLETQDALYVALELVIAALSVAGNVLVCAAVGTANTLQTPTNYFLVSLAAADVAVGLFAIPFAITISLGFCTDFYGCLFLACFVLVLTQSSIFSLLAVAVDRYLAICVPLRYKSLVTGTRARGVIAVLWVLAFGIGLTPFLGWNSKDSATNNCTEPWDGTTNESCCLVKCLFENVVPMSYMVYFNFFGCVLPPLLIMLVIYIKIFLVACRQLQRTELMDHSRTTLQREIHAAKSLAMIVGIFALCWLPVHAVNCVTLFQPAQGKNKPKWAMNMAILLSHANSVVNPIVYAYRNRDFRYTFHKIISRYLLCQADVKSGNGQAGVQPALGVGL
- assay-text: Adenosine receptor activity assay (Table 1), A2B activity
- Assay type: biochemical
- conditions: A2A activity to the A2B activity; A2A/A2B
measurement-name: Ratio

Please give the measured Ratio for this compound: Cc1cc2nc(N[C@@H](C)c3cncc(F)c3)nc(C(=O)N3CC[C@H](N)C3)c2s1 [Example Z412]
166.77

[A] C[C@H](Nc1nc(C(=O)N2CC(CN(C)C(=O)CC(C)(C)C)C2)c2sccc2n1)c1cncc(F)c1 [Example Z550]
[B] CC(=O)N(C)C1CN(C(=O)c2nc(N[C@@H](C)c3cncc(F)c3)nc3cc(C)sc23)C1 [Example Z509]
[C] Cc1cccc(C(=O)NC2CN(C(=O)c3nc(N[C@@H](C)c4cncc(F)c4)nc4ccsc34)C2)c1 [Example Z626]
[D] Cc1cc2nc(N[C@@H](C)c3cncc(F)c3)nc(C(=O)NCC[C@@H]3CCNC3)c2s1 [Example Z489]
[E] CC1CCN1C(=O)c1nc(N[C@@H](C)c2cncc(F)c2)nc2ccsc12 (stereo partly drawn) [Example Z524]
Rank by Ratio (largest to smallest). Provide the labels, sequenced as the question asks.
D, B, E, A, C
(D: 365.84, B: 80.91, E: 11.94, A: 4.79, C: 0.85)

###

- assay-text: Hepatocyte (Hep) intrinsic clearance, rat
- Type: in vitro ADME
- conditions: hepatocytes
measurement-name: hepatocyte CLint (µL/min/1e6 cells)

Completed entries (count: 3):
Please give the measured hepatocyte CLint for this compound: "C[C@H]1CCN(C(=O)c2nc(N[C@@H](C)c3cccnc3)nc3ccsc23)C1"
65.9

Please give the measured hepatocyte CLint for this compound: "C[C@H](Nc1nc(C(=O)N2CC[C@@H](O)C2)c2sccc2n1)c1cncc(F)c1"
16.6

Please give the measured hepatocyte CLint for this compound: "CNc1cc2nc(N[C@@H](C)c3cccnc3)nc(C(=O)N3CCCC3)c2s1"
38.3

[a] O=C(c1nc(NCc2cncc(F)c2)nc2ccsc12)N1CC[C@@H](F)C1
[b] C[C@H](Nc1nc(C(=O)N2CC(O)C2)c2sccc2n1)c1cccnc1
[c] N#Cc1cncc(CNc2nc(C(=O)N3CCCC3)c3sccc3n2)c1
Which order do these items take when sorted by rising hepatocyte CLint? List them. Provide the labels, sequenced as the question asks.
b, a, c
(b: 10.3 µL/min/1e6 cells, a: 63.1 µL/min/1e6 cells, c: 102 µL/min/1e6 cells)

###

- target-or-system: adenosine A2B receptor (Homo sapiens (Human))
- assay-text: Adenosine receptor activity assay (Table 1), A2B activity
- Assay type: biochemical
- conditions: cAMP; read-out: Ave A2B cAMP IC50
pIC50: −log10 of the molar value.
measurement-name: pIC50

Completed entries (count: 5):
Please give the measured pIC50 for this compound: "C[C@H](Nc1nc(C(=O)N2CC(NC(=O)C34CC5CC(CC(C5)C3)C4)C2)c2sccc2n1)c1cncc(F)c1"
7.30 to 8.00

Please give the measured pIC50 for this compound: "C[C@H](Nc1nc(C(=O)N2CC(NC(=O)CCC3CCOCC3)C2)c2sccc2n1)c1cncc(F)c1"
7.30 to 8.00

Please give the measured pIC50 for this compound: "C[C@H](Nc1nc(C(=O)N2CC(NC(=O)C3(C)CC3)C2)c2sccc2n1)c1cncc(Cl)c1"
> 8.00

Please give the measured pIC50 for this compound: "C[C@H](Nc1nc(C(=O)N2CC[C@@H](C(=O)NOC3CCCC3)C2)c2sccc2n1)c1cncc(F)c1"
> 8.00

Please give the measured pIC50 for this compound: "C[C@H](Nc1nc(C(=O)N2CC(NC(=O)c3cccc(C(F)(F)F)c3)C2)c2sccc2n1)c1cncc(F)c1"
> 8.00

New cases:
Please give the measured pIC50 for this compound: "C[C@H](Nc1nc(C(=O)N2CC(NC(=O)c3ccccc3F)C2)c2sccc2n1)c1cncc(F)c1"
> 8.00

Please give the measured pIC50 for this compound: "C[C@H](Nc1nc(C(=O)N2CC(NC(=O)C3COC3)C2)c2sccc2n1)c1cncc(F)c1"
7.30 to 8.00

###

- assay-text: Liver microsome intrinsic clearance, rat
- Assay type: in vitro ADME
measurement-name: LM CLint (μL/min/mg/protein)

Please give the measured LM CLint for this compound: "C[C@H](Nc1nc(C(=O)N2CC[C@@H](O)C2)c2sc(C(F)(F)F)cc2n1)c1cncc(F)c1"
7.73

[a] C[C@H](Nc1nc(C(=O)N2CC[C@@H](O)C2)c2sc(C(F)(F)F)cc2n1)c1cccnc1
[b] C[C@H](Nc1nc(C(=O)NCCc2ccc(O)cc2)c2sccc2n1)c1cncc(F)c1
[c] Cc1cc2nc(N[C@@H](C)c3cccnc3)nc(C(=O)N3CC[C@@H](CO)C3)c2s1
[d] CO[C@@H]1CCN(C(=O)c2nc(N[C@@H](C)c3ccccn3)nc3cc(C)sc23)C1
Rank by LM CLint (largest to smallest). Provide the labels, sequenced as the question asks.
b, d, c, a

###

Each record here notes measured pIC50.
- target-or-system: adenosine A2A receptor (Homo sapiens (Human))
- assay-text: Adenosine receptor activity assay (Table 1), A2A activity
- Format: biochemical
- conditions: read-out: Ave A2A cAMP IC50
pIC50: −log10 of the molar value.

Completed entries (count: 8):
Please give the measured pIC50 for this compound: "CNc1cc2nc(N[C@@H](C)c3cccnc3)nc(C(=O)N3CC(O)C3)c2s1"
< 6.30

Please give the measured pIC50 for this compound: "Cc1cc2nc(N[C@@H](C)c3cncc(F)c3)nc(C(=O)N3CC(CNC(=O)OC(C)(C)C)C3)c2s1"
6.30 to 7.00

Please give the measured pIC50 for this compound: CCC(Nc1nc(C(=O)NCc2ccc(OC)nc2)c2sccc2n1)c1cccnc1 (centres unmarked)
6.30 to 7.00

Please give the measured pIC50 for this compound: "O=C(c1nc(NCc2cncc(F)c2)nc2ccsc12)N1CCC1"
6.30 to 7.00

Please give the measured pIC50 for this compound: "C[C@H](Nc1nc(C(=O)N2CC[C@@H](O)C2)c2sc(N)cc2n1)c1cccnc1"
< 6.30

Please give the measured pIC50 for this compound: "COC1CN(C(=O)c2nc(N[C@@H](C)c3cncc(F)c3)nc3ccsc23)C1"
6.30 to 7.00

Please give the measured pIC50 for this compound: "C[C@H](NC(=O)c1nc(N[C@@H](C)c2cccnc2)nc2ccsc12)c1cccnc1"
7.00 to 7.30

Please give the measured pIC50 for this compound: "C[C@H](Nc1nc(C(=O)N2CCCOC2)c2sccc2n1)c1ccccn1"
< 6.30

New cases:
Please give the measured pIC50 for this compound: "COc1ccc(CCNC(=O)c2nc(N[C@@H](C)c3cncc(F)c3)nc3ccsc23)cc1"
6.30 to 7.00

Please give the measured pIC50 for this compound: "C[C@H](Nc1nc(C(=O)NCCc2cccc(O)c2)c2sccc2n1)c1cccnc1"
6.30 to 7.00

Please give the measured pIC50 for this compound: "Cc1ncccc1CNc1nc(C(=O)N2CCCC2)c2sccc2n1"
6.30 to 7.00

Please give the measured pIC50 for this compound: "C[C@H](Nc1nc(C(=O)NCC(F)(F)F)c2sccc2n1)c1cncc(F)c1"
6.30 to 7.00

Please give the measured pIC50 for this compound: "C[C@@H](O)CNC(=O)c1nc(NCc2cncc(C(F)(F)F)c2)nc2ccsc12"
< 6.30

Please give the measured pIC50 for this compound: "C[C@H](Nc1nc(C(=O)N2CC(F)(F)C2)c2sccc2n1)c1cccnc1"
6.30 to 7.00
